Measured values drawn from patent US9908886B2 for this set.

Tested on: D1.1 cells
Assay: Cell cytotoxicity assay (CellTiter-Glo)
Format: cell-based
Conditions: 48 hours; read-out: IC50 after 48 hours of treatment, D1.1
Measured endpoint: IC50 (µM)
I only need the number, in µM, no unit after it.

Value sought: IC50, system D1.1 cells, item CC(=O)C1=C(O)C=C2Oc3c(C(N)=O)c(O)cc(O)c3[C@]2(C)C1=O [Cercosporamide, reference compound] . Result: 20.2

====

Let's look at some compounds and their measured IC50.
Molecular target: MNK2 (Homo sapiens (Human), UniProt Q9HBH9)
Sequence (Q9HBH9 84-388): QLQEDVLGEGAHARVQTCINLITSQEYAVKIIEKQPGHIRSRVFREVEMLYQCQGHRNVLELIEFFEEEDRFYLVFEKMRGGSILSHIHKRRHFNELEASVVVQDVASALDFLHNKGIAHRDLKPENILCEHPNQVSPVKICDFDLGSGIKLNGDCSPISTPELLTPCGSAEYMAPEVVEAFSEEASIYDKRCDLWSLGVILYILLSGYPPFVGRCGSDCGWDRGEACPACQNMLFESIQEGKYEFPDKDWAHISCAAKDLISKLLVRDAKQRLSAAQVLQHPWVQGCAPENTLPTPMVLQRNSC
Experiment: In vitro MNK kinase assay (Caliper LabChip mobility shift)
Assay type: biochemical

{"columns": ["Compound", "System name", "Result"],
 "data": [
  ["N#Cc1ccc(-n2cnc3ccc(-c4ccc(C(=O)N5CCOCC5)cc4)cc32)cc1 [Example 190]", "MNK2 (Homo sapiens (Human), UniProt Q9HBH9)", "< 1 µM"]
]}

// below: IC50 requested for another compound
compound CNC1CCN(C(=O)c2ccc(-c3ccc4ncc(-c5ccc(C#N)cc5)n4c3)cc2NC(C)=O)CC1 [Example 169] , IC50 observed: < 0.1 µM
